# ASSAYED TARGET: Cytochrome P450 3A7 (Homo sapiens) (UniProt P24462)
# Sequence (P24462 whole entry, looked up): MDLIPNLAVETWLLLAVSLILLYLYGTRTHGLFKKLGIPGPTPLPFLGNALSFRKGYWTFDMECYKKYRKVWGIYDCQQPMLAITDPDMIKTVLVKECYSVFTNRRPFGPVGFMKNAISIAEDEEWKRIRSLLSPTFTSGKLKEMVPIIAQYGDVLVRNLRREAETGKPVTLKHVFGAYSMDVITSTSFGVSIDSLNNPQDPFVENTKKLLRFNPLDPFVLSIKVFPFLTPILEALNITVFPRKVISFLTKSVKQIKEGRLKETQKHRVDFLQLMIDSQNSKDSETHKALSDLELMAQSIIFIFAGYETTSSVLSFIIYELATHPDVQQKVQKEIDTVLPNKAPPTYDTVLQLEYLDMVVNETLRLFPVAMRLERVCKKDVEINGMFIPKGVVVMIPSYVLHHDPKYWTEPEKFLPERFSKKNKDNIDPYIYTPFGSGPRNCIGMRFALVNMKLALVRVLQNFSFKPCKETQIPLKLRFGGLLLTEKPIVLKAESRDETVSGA
# MEASUREMENT PROTOCOL: Cytochrome P450 family 3 subfamily A member 7 (CYP3A7) small molecule antagonists: luciferase biochemical qHTS assay (AID 1963596); note: nearly all actives have a fitted effect of over 40% in size
# MEASUREMENT PARAMETERS: P450-Glo CYP3A7 enzyme luminescence, 1 h; series mostly up to 57.4 µM
Records with an inconclusive call do not appear. Active and inactive are the calls of the source. Calls come from the whole dose curve; as a rule, active = well fitted inhibition curve with a large enough effect; inconclusive = small, poorly fitted or top-dose-only effect; inactive = no such curve, though single readings can be large or run the other way.
Response enum: active, inactive

Worked examples, 5 molecules total:
MOLECULE	CLASS
O=C(O)c1cn(-c2ccc(F)cc2)c2cc(N3CCNCC3)c(F)cc2c1=O	inactive
O=S(=O)(O)NC1CCCCC1	inactive
CCCC(=O)Nc1ccc(OCC(O)CNC(C)C)c(C(C)=O)c1 (configuration not stated)	inactive
CN(Cc1cnc2nc(N)nc(N)c2n1)c1ccc(C(=O)N[C@@H](CCC(=O)O)C(=O)O)cc1	inactive
C[C@@H](O)[C@H](NC(=O)c1ccc(C#Cc2ccc(CN3CCOCC3)cc2)cc1)C(=O)NO	inactive

Q: Record lookup: outcome of this test for NC(=O)NS(=O)(=O)c1ccc(N)cc1 ?
A: inactive

Q: Record lookup: outcome of this test for O=C1NC(=Nc2ccccc2F)S/C1=C\c1ccc(C(=O)O)cc1 ?
A: inactive

Q: Record lookup: outcome of this test for CN1Cc2cc(C(=O)N3CCC(C4CCNCC4)CC3)ccc2N[C@@H](CC(=O)O)C1=O ?
A: inactive

Q: Record lookup: outcome of this test for CCN(CC)CCNC(=O)c1cc(S(C)(=O)=O)ccc1OC ?
A: inactive

Q: Record lookup: outcome of this test for O=C(O)[C@@H]1C[C@H]2C[C@@H](CCc3nn[nH]n3)CC[C@H]2CN1 ?
A: inactive

Q: Record lookup: outcome of this test for O=c1cc(N2CCN(c3cccc(C(F)(F)F)c3)CC2)[nH]c(=O)n1C1CCCCC1 ?
A: inactive

Q: Record lookup: outcome of this test for O=C(CN1CCNCC1)NC1CCCCC1 ?
A: inactive
